Target Under Test: ClpP (Staphylococcus aureus)
Construct: pET28a-clpP, purified from E. coli BL21(DE3)
Sequence (Q2G036 whole entry): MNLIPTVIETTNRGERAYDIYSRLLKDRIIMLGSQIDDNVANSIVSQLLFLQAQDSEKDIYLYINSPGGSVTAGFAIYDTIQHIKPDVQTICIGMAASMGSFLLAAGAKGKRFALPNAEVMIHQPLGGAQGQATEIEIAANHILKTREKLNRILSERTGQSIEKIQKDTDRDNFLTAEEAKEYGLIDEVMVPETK
Assay Procedure: biochemical
Experimental Parameters: read-out: Relative inhibition rate (%)
# maps each entry to its inhibition at 64 µg/mL

>  <Molecule>
COc1cc(-c2coc3cc(O[C@@H]4O[C@H](CO)[C@@H](O)[C@H](O)[C@H]4O)c(OC)c(O)c3c2=O)cc(O)c1OC

>  <inhibition at 64 µg/mL>
14.2%

$$$$
>  <Molecule>
COc1cc(-c2oc3cc(O)cc(O)c3c(=O)c2O[C@@H]2O[C@H](CO[C@@H]3O[C@@H](C)[C@H](O)[C@@H](O)[C@H]3O)[C@@H](O)[C@H](O)[C@H]2O[C@@H]2O[C@@H](C)[C@H](O)[C@@H](O)[C@H]2O)ccc1O [Typhaneoside]

>  <inhibition at 64 µg/mL>
29.7%

$$$$
>  <Molecule>
C[C@@H]1O[C@@H](O[C@H]2[C@H](Oc3cc(O)c4c(=O)cc(-c5ccc(O)cc5)oc4c3)O[C@H](CO)[C@@H](O)[C@@H]2O)[C@H](O)[C@H](O)[C@H]1O

>  <inhibition at 64 µg/mL>
46.7%

$$$$
>  <Molecule>
O=c1ccc2cc(O)c(O)cc2o1 [6,7-Dihydroxycoumarin]

>  <inhibition at 64 µg/mL>
19.6%

$$$$
>  <Molecule>
Oc1cc2c(cc1O)[C@@H]1c3ccc(O)c(O)c3OC[C@]1(O)C2

>  <inhibition at 64 µg/mL>
23.9%

$$$$
>  <Molecule>
COc1ccc(-c2oc3c(CC=C(C)C)c(O)cc(O)c3c(=O)c2O[C@@H]2O[C@@H](C)[C@H](O)[C@@H](O)[C@H]2O)cc1 [Baohuoside I]

>  <inhibition at 64 µg/mL>
37.1%

$$$$
>  <Molecule>
O=c1c(O)c(-c2ccc(O)cc2)oc2cc(O)cc(O)c12

>  <inhibition at 64 µg/mL>
44%

$$$$

###

Target Under Test: ClpP (Staphylococcus aureus)
Construct: pET28a-clpP, purified from E. coli BL21(DE3)
Assay Procedure: biochemical
Experimental Parameters: read-out: Relative inhibition rate (%)
Quick reference for inhibition at 64 µg/mL among some compounds

>  <Compound>
C/C=C(/C)C(=O)O[C@H]1[C@@H](OC(C)=O)c2c(ccc3ccc(=O)oc23)OC1(C)C

>  <Target Under Test>
ClpP (Staphylococcus aureus)

>  <Value Units>
%

>  <inhibition at 64 µg/mL>
37.8

$$$$
>  <Compound>
COc1cc([C@@H]2Oc3c(O)cc([C@H]4Oc5cc(O)cc(O)c5C(=O)[C@@H]4O)cc3[C@H]2CO)ccc1O

>  <Target Under Test>
ClpP (Staphylococcus aureus)

>  <Value Units>
%

>  <inhibition at 64 µg/mL>
9.3

$$$$
>  <Compound>
COc1cc2c(=O)c(-c3ccc(O)cc3)coc2cc1O[C@@H]1O[C@H](CO)[C@@H](O)[C@H](O)[C@H]1O

>  <Target Under Test>
ClpP (Staphylococcus aureus)

>  <Value Units>
%

>  <inhibition at 64 µg/mL>
18.5

$$$$
>  <Compound>
O=c1cc(-c2ccc(O)c(O)c2)oc2c([C@@H]3O[C@H](CO)[C@@H](O)[C@H](O)[C@H]3O)c(O)cc(O)c12

>  <Target Under Test>
ClpP (Staphylococcus aureus)

>  <Value Units>
%

>  <inhibition at 64 µg/mL>
61.4

$$$$
>  <Compound>
COc1cc2ccc(=O)oc2c(O)c1O

>  <Target Under Test>
ClpP (Staphylococcus aureus)

>  <Value Units>
%

>  <inhibition at 64 µg/mL>
50.3

$$$$
>  <Compound>
COc1ccc(-c2oc3c(CC=C(C)C)c(O[C@@H]4O[C@H](CO)[C@@H](O)[C@H](O)[C@H]4O)cc(O)c3c(=O)c2O[C@@H]2O[C@@H](C)[C@H](O)[C@@H](O)[C@H]2O[C@@H]2OC[C@@H](O)[C@H](O)[C@H]2O)cc1 [Epimedin B]

>  <Target Under Test>
ClpP (Staphylococcus aureus)

>  <Value Units>
%

>  <inhibition at 64 µg/mL>
29.1

$$$$
>  <Compound>
O=C1C[C@@H](c2ccccc2)Oc2cc(O)cc(O)c21

>  <Target Under Test>
ClpP (Staphylococcus aureus);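 note: ClpP peptidase activity measured as fluorescence (ex 360 nm, em 465 nm) from cleavage of Suc-LY-AMC substrate at 100 µM, 30 min at 32°C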

>  <Value Units>
%

>  <inhibition at 64 µg/mL>
33.7

$$$$
